Assay: Inhibitory activity against Calcineurin (CaN phosphatase)
Rule for this label: Yes means IC50 is less than 7 nM; No means IC50 is at least 7 nM.

>>> label_class("CC[C@@H]1/C=C(\\C)C[C@H](C)C[C@H](OC)[C@H]2O[C@@](O)(C(=O)C(=O)N3CCCC[C@H]3C(=O)O[C@H](/C(C)=C/C3CC[C@@H](OC[C@@H](O)c4cccc(C(F)(F)F)c4)[C@H](OC)C3)[C@H](C)[C@H](O)CC1=O)[C@H](C)C[C@@H]2OC (stereo partly drawn)")
"Yes"
>>> label_class("CC[C@@H]1/C=C(\\C)C[C@H](C)C[C@H](OC)[C@H]2O[C@@](O)(C(=O)C(=O)N3CCCC[C@H]3C(=O)O[C@H](/C(C)=C/C3CC[C@@H](OC[C@H](O)c4cc5ccccc5s4)[C@H](OC)C3)[C@H](C)[C@H](O)CC1=O)[C@H](C)C[C@@H]2OC (stereo partly drawn)")
"Yes"
>>> label_class("C=CC[C@@H]1/C=C(\\C)C[C@H](C)C[C@H](OC)[C@H]2O[C@@](O)(C(=O)C(=O)N3CCCC[C@H]3C(=O)O[C@H](/C(C)=C/[C@@H]3CC[C@@H](O)[C@H](OC)C3)[C@H](C)[C@@H](O)CC1=O)[C@H](C)C[C@@H]2OC")
"No"
>>> label_class("CC[C@@H]1/C=C(\\C)C[C@H](C)C[C@H](OC)[C@H]2O[C@@](O)(C(=O)C(=O)N3CCCC[C@H]3C(=O)O[C@H](/C(C)=C/C3CC[C@@H](OC[C@H](O)c4ccc(F)c(F)c4)[C@H](OC)C3)[C@H](C)[C@H](O)CC1=O)[C@H](C)C[C@@H]2OC (stereo partly drawn)")
"No"
>>> label_class("CC[C@@H]1/C=C(\\C)C[C@H](C)C[C@H](OC)[C@H]2O[C@@](O)(C(=O)C(=O)N3CCCC[C@H]3C(=O)O[C@H](/C(C)=C/C3CC[C@@H](OC[C@@H](O)c4cc(C)cc(C)c4)[C@H](OC)C3)[C@H](C)[C@H](O)CC1=O)[C@H](C)C[C@@H]2OC (stereo partly drawn)")
"No"
>>> label_class("CC[C@@H]1/C=C(\\C)C[C@H](C)C[C@H](OC)[C@H]2O[C@@](O)(C(=O)C(=O)N3CCCC[C@H]3C(=O)O[C@H](/C(C)=C/C3CC[C@@H](OC[C@@H](O)c4ccc(F)c(F)c4)[C@H](OC)C3)[C@H](C)[C@H](O)CC1=O)[C@H](C)C[C@@H]2OC (stereo partly drawn)")
"No"
>>> label_class("CC[C@@H]1/C=C(\\C)C[C@H](C)C[C@H](OC)[C@H]2O[C@@](O)(C(=O)C(=O)N3CCCC[C@H]3C(=O)O[C@H](/C(C)=C/C3CC[C@@H](OC[C@H](O)c4cccc(C(F)(F)F)c4)[C@H](OC)C3)[C@H](C)[C@H](O)CC1=O)[C@H](C)C[C@@H]2OC (stereo partly drawn)")
"Yes"
>>> label_class("CC[C@@H]1/C=C(\\C)C[C@H](C)C[C@H](OC)[C@H]2O[C@@](O)(C(=O)C(=O)N3CCCC[C@H]3C(=O)O[C@H](/C(C)=C/C3CC[C@@H](OC[C@H](O)c4ccc5ccccc5c4)[C@H](OC)C3)[C@H](C)[C@H](O)CC1=O)[C@H](C)C[C@@H]2OC (stereo partly drawn)")
"No"
